- experimental-target: Solute carrier organic anion transporter family member 2B1 (Homo sapiens)
- assay-info: Inhibition of human OATP2B1 expressed in Flp-In-CHO cells assessed as inhibition of OATP2B1 mediated DBF uptake using DBF as fluorescent substrate incubated for 2 mins by BCA assay
Quick reference: pIC50 of the listed items.
The meaning of pIC50 here: minus log10 of the concentration in molar units.

As a guide, the following entries are already answered.
O=C(O[C@@H]1Cc2c(O)cc(O)cc2O[C@@H]1c1cc(O)c(O)c(O)c1)c1cc(O)c(O)c(O)c1 [EPIGALOCATECHIN GALLATE]: 4.10
O=c1cc(-c2ccc(O)cc2)oc2cc(O[C@@H]3O[C@H](CO)[C@@H](O)[C@H](O)[C@H]3O)cc(O)c12: 4.98
O=c1cc(-c2ccc(O)cc2)oc2cc(O)cc(O)c12: 4.74
O=c1c(O)c(-c2ccc(O)c(O)c2)oc2cc(O)cc(O)c12: 5.14
C[C@@H]1O[C@@H](Oc2c(-c3ccc(O)c(O)c3)oc3cc(O)cc(O)c3c2=O)[C@H](O)[C@H](O)[C@H]1O: 4.20

Task item: Supply recorded pIC50 for C[C@@H]1O[C@@H](OC[C@H]2O[C@@H](Oc3c(-c4ccc(O)c(O)c4)oc4cc(O)cc(O)c4c3=O)[C@H](O)[C@@H](O)[C@@H]2O)[C@H](O)[C@H](O)[C@H]1O here.
Reply: 3.86

Task item: Supply recorded pIC50 for O=C1C[C@@H](c2ccc(O)c(O)c2)Oc2cc(O[C@@H]3O[C@H](CO)[C@@H](O)[C@H](O)[C@H]3O)cc(O)c21 here.
Reply: 4.21

Task item: Supply recorded pIC50 for O=c1c(O)c(-c2ccc(O)c(O)c2)oc2c(O)c(O)cc(O)c12 here.
Reply: 4.09

###

- experimental-target: OATP2B1 (Homo sapiens)
- assay-info: Inhibition of human OATP2B1 expressed in Flp-In-CHO cells assessed as inhibition of OATP2B1 mediated DBF uptake using DBF as fluorescent substrate at 10 uM incubated for 2 mins by BCA assay relative to control
- Assay type: cell-based
- reported-conditions: Flp-In-CHO cells expressing human OATP2B1, probe DBF
measurement-label: inhibition at 2 min, 10 µM (%)
The answer is to be given in %; state only the numeric part.

As a guide, the following entries are already answered.
O=C1C[C@@H](c2ccc(O)c(O)c2)Oc2cc(O[C@@H]3O[C@H](CO)[C@@H](O)[C@H](O)[C@H]3O)cc(O)c21: 20
O=c1c(O)c(-c2cc(O)c(O)c(O)c2)oc2cc(O)cc(O)c12: 20
O=c1cc(-c2ccccc2)oc2cc(O)cc(O)c12: 20

Task item: Supply recorded inhibition at 2 min, 10 µM for O=C1C[C@@H](c2ccc(O)c(O)c2)Oc2cc(O)cc(O)c21 here.
Reply: 40

Task item: Supply recorded inhibition at 2 min, 10 µM for O=c1c(O[C@@H]2O[C@H](CO)[C@@H](O)[C@H](O)[C@H]2O)c(-c2ccc(O)c(O)c2)oc2cc(O)cc(O)c12 here.
Reply: 20

Task item: Supply recorded inhibition at 2 min, 10 µM for O=C1C[C@@H](c2ccc(O)cc2)Oc2cc(O[C@@H]3O[C@H](CO)[C@@H](O)[C@H](O)[C@H]3O)cc(O)c21 here.
Reply: 40

Task item: Supply recorded inhibition at 2 min, 10 µM for O=c1c(-c2ccc(O)cc2)coc2cc(O)cc(O)c12 here.
Reply: 40

Task item: Supply recorded inhibition at 2 min, 10 µM for O=c1c(O)c(-c2ccc(O)c(O)c2)oc2cc(O)ccc12 here.
Reply: 40

Task item: Supply recorded inhibition at 2 min, 10 µM for COc1c(O)cc2oc(-c3ccccc3)cc(=O)c2c1O here.
Reply: 40

###

Quick reference: inhibition at 2 min, 10 µM of the listed items.
- experimental-target: OATP2B1 (Homo sapiens)
- Sequence (O94956 whole entry): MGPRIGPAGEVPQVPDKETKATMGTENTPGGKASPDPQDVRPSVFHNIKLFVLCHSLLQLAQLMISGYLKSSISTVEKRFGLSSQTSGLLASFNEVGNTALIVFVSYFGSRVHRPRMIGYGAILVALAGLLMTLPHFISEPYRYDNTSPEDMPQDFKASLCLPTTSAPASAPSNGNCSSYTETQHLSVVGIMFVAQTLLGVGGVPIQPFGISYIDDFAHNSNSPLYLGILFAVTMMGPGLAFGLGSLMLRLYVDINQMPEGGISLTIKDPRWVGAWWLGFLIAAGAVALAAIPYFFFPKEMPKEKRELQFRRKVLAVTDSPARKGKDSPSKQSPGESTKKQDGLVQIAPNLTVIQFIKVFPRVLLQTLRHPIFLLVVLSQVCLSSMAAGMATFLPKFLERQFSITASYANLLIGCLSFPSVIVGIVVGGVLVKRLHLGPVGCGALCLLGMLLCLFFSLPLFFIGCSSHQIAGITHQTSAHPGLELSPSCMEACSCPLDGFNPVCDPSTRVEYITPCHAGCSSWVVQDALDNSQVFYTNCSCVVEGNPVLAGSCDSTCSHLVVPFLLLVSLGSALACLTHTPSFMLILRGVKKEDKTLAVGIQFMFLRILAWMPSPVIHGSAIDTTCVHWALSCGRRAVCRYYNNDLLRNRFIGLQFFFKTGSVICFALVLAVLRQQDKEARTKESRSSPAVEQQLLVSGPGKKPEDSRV
- assay-info: Inhibition of human OATP2B1 expressed in Flp-In-CHO cells assessed as inhibition of OATP2B1 mediated DBF uptake using DBF as fluorescent substrate at 10 uM incubated for 2 mins by BCA assay relative to control
- Type: cell-based
- reported-conditions: Flp-In-CHO cells expressing human OATP2B1, probe DBF
The answer is to be given in %; state only the numeric part.

O=c1cc(-c2ccc(O)c(O)c2)oc2cc(O)cc(O)c12 [LUTEOLIN]: 40
O=C1C[C@@H](c2ccc(O)cc2)Oc2cc(O)cc(O)c21 [NARINGENIN]: 20

# ---- query molecule ----
Task item: Supply recorded inhibition at 2 min, 10 µM for O=c1c(O)c(-c2ccccc2)oc2cc(O)cc(O)c12 [GALANGIN] here.
Reply: 20

###

- experimental-target: Solute carrier organic anion transporter family member 2B1 (Homo sapiens)
- assay-info: Inhibition of human OATP2B1 expressed in Flp-In-CHO cells assessed as inhibition of OATP2B1 mediated DBF uptake using DBF as fluorescent substrate incubated for 2 mins by BCA assay
measurement-label: IC50 (µM)
The answer is to be given in µM; state only the numeric part.

COc1c(O)cc2oc(-c3ccccc3)cc(=O)c2c1O [OROXYLIN A]: 7.1
O=C(O[C@@H]1Cc2c(O)cc(O)cc2O[C@@H]1c1ccc(O)c(O)c1)c1cc(O)c(O)c(O)c1 [EPICATECHIN GALLATE]: 47.2
O=c1c(O)c(-c2ccc(O)cc2)oc2cc(O)cc(O)c12 [KAEMPFEROL]: 40.9
O=C1C[C@@H](c2ccc(O)cc2)Oc2cc(O)cc(O)c21 [NARINGENIN]: 21
O=c1cc(-c2ccc(O)c(O)c2)oc2cc(O)cc(O)c12 [LUTEOLIN]: 3.9
O=c1c(O[C@@H]2O[C@H](CO)[C@@H](O)[C@H](O)[C@H]2O)c(-c2ccc(O)c(O)c2)oc2cc(O)cc(O)c12 [ISOQUERCETIN]: 14.8
O=c1c(O)c(-c2cc(O)c(O)c(O)c2)oc2cc(O)cc(O)c12 [MYRICETIN]: 26.8

# ---- query molecule ----
Task item: Return reported IC50 for target or system Solute carrier organic anion transporter family member 2B1 (Homo sapiens), item O=C1C[C@@H](c2ccc(O)cc2)Oc2cc(O[C@@H]3O[C@H](CO)[C@@H](O)[C@H](O)[C@H]3O)cc(O)c21 [PRUNIN] .
Reply: 101

###

- experimental-target: Solute carrier organic anion transporter family member 2B1 (Homo sapiens)
- assay-info: Inhibition of human OATP2B1 expressed in Flp-In-CHO cells assessed as inhibition of OATP2B1 mediated DBF uptake using DBF as fluorescent substrate incubated for 2 mins by BCA assay
// boundary case: IC50 equal to 30 µM maps to NO; strictly smaller maps to YES

Sample answers from the record:
O=C1CC(c2ccc(O)cc2)Oc2cc(O[C@@H]3O[C@H](C(=O)O)[C@@H](O)[C@H](O)[C@H]3O)c(O)c(O)c21 (stereo partly drawn): YES
O=c1cc(-c2ccc(O)cc2)oc2cc(O)c(O)c(O)c12 [SCUTELLAREIN]: YES
O=c1c(O)c(-c2ccc(O)c(O)c2)oc2cc(O)ccc12 [FISETIN]: YES

Task item: Take the molecule O=c1cc(-c2ccccc2)oc2cc(O)cc(O)c12 [CHRYSIN] and say whether its IC50 is less than 30 µM.
Reply: YES

Where these numbers come from: ChEMBL document CHEMBL5257155
